# Test system: Plasmodium falciparum
# test_method_notes: Resistance index, ratio of EC50 for chloroquine, mefloquine, pyrimethamine and atovaquone-resistant Plasmodium falciparum TM90-C2B to EC50 for chloroquine and pyrimethamine-resistant Plasmodium falciparum W2
# Format: functional
measured_parameter: Ratio EC50
Enter a number only.

>>> reported_value("Cc1ccc2[nH]c3c(c(=O)c2c1)CCCC3")
1.46

Which Ratio EC50 is listed for `O=c1c2c([nH]c3cc([N+](=O)[O-])ccc13)CCCC2` ?
0.91

Which Ratio EC50 reading was recorded for the compound `CCOc1ccc2[nH]c3c(c(=O)c2c1)CCCC3` ?
0.85

Data request, read-out Ratio EC50, for `Cc1cccc2[nH]c3c(c(=O)c12)CC(C)(C)CC3`
1.37

I'd like to know its Ratio EC50. The compound in question is `O=c1c2c([nH]c3cccc(Cl)c13)CCCC2`
1.22

What value of Ratio EC50 has been reported for the following compound? `O=c1c2c([nH]c3ccc(I)cc13)CCCC2`
0.44

Look up Ratio EC50: `O=c1c2c([nH]c3c(F)cc(F)cc13)CCCC2`
0.15

Which Ratio EC50 value belongs to `COc1ccc2c(=O)c3c([nH]c2c1)CCC(F)(F)C3` ?
1.02

Requested field: Ratio EC50. Item: `Cc1ccc(C)c2c(=O)c3c([nH]c12)CCCC3`
0.78

Requested read-out: Ratio EC50. Entry: `CC1(C)CCc2c([nH]c3cccc(Cl)c3c2=O)C1`
1.78

Could you share which Ratio EC50 value was measured for `CCOC(=O)c1ccc2[nH]c3c(c(=O)c2c1)CCCC3` ?
0.38

What value of Ratio EC50 has been reported for the following compound? `CC1(C)CCc2c([nH]c3ccccc3c2=O)C1`
0.18

# credit: ChEMBL document CHEMBL1799910
